Tested on: astro (control astrocytes)
Experiment: Drug repurposing screens with cells derived from glioblastoma tumor samples (AID 1345199); note: nearly all actives have a fitted effect of over 40% in size
Conditions: viability, ATP luminescence, 48 h; series mostly up to 45.9 µM
Results filed as inconclusive are left out. Activity calls are given as the source filed them. Calls come from the whole dose curve; as a rule, active = well fitted inhibition curve with a large enough effect; inconclusive = small, poorly fitted or top-dose-only effect; inactive = flat fitted curve, though single readings scatter.
Labels: active, inactive

Compound	Assay Target	Class Name
CN(C)CCCO[C@@H]1[C@H]2OC(C)(C)O[C@H]2O[C@@H]1C(O)CO (stereo not given in full)	astro	inactive
CC(=O)OCC(=O)[C@@]1(O)CC[C@H]2[C@@H]3CCC4=CC(=O)CC[C@]4(C)[C@H]3C(=O)C[C@@]21C	astro	inactive
CN(N=O)C(=O)N[C@@H]1[C@@H](O)[C@H](O)[C@@H](CO)O[C@@H]1O	astro	inactive
CCN(CC)CCNC(=O)c1c(C)[nH]c(/C=C2\C(=O)Nc3ccc(F)cc32)c1C	astro	active
CS(=O)(=O)c1ccc([C@@H](O)[C@@H](CF)NC(=O)C(Cl)Cl)cc1	astro	inactive

* * *

Molecular target: Cytochrome P450 2D6 (Homo sapiens)
Test: Cytochrome P450 family 2 subfamily D member 6 (CYP2D6) small molecule antagonists: luciferase biochemical (cell-free) qHTS assay (AID 1645840); note: nearly all actives have a fitted effect of over 55% in size
Settings: P450-Glo CYP2D6 enzyme, luciferin luminescence, 1 h; series mostly up to 57.4 µM
Inconclusive results are not listed. The source made the active and inactive calls. Calls follow the shape of the dose curve; as a rule, active = well fitted inhibition curve with a large enough effect in the repeat runs; inconclusive = weak or mixed curves; inactive = flat fitted curve, though single readings scatter.
Labels: active, inactive

Compound	Class Name
COC(=O)[C@H]1[C@H]2C[C@@H]3c4[nH]c5cc(OC)ccc5c4CCN3C[C@H]2C[C@@H](OC(=O)COc2ccc(OC)cc2)[C@@H]1OC	active
CC(C)(C)C(=O)C(Oc1ccc(Cl)cc1)n1ccnc1 (stereo not given)	active
CC(C)(O)c1ccccc1CC[C@@H](SCC1(CC(=O)O)CC1)c1cccc(/C=C/c2ccc3ccc(Cl)cc3n2)c1	inactive
O=S(=O)(O)NC1CCCCC1	inactive
O=C(O)CN1C(=O)c2cccc3cccc(c23)C1=O	inactive
CCCCC/C(C=O)=C\c1ccccc1	inactive
C[C@@H]1CN(c2c(F)c(F)c3c(=O)c(C(=O)O)cn(C4CC4)c3c2F)C[C@H](C)N1	inactive
Cc1ccc(C(C)C)cc2c(C)ccc1-2	inactive
CCCCN1CCCC[C@H]1C(=O)Nc1c(C)cccc1C	active
CCOc1ccc2ccccc2c1C(=O)N[C@@H]1C(=O)N2[C@@H]1SC(C)(C)[C@@H]2C(=O)O	inactive
CCCCc1ncc(/C=C(\Cc2cccs2)C(=O)O)n1Cc1ccc(C(=O)O)cc1	inactive
O=S(=O)(O)c1cc(I)c(O)c2ncccc12	inactive
CCN(CC)CCCC(C)Nc1c2ccc(Cl)cc2nc2ccc(OC)cc12 (stereo not given)	active
CCCCN(CCCC)CCCOC(=O)c1ccc(N)cc1	active
CC(COc1ccccc1)NC(C)C(O)c1ccc(O)cc1 (stereo not given)	active
CN1CCCCC1CCN1c2ccccc2Sc2ccc(S(C)=O)cc21 (stereo not given)	active
CC1(C)CO[C@@H](CC(=O)O)CN1	inactive
O=C(O)COc1nn(Cc2ccccc2)c2ccccc12	inactive
N[C@H](C(=O)O)c1ccc(O)cc1	inactive
CCC(=O)Nc1ccc(O)cc1	inactive

* * *

Tested on: JCK
Experiment: qHTS profiling for inhibitors of Plasmodium falciparum proliferation (AID 504749); note: nearly all actives have a fitted effect of over 60% in size
Conditions: P. falciparum in erythrocytes, SYBR Green DNA, 72 h; series mostly up to 28.7 µM
Records with an inconclusive call do not appear. The source made the active and inactive calls. The call rests on the fitted dose curve; in most records, active means well fitted inhibition curve with a large enough effect; inconclusive means small, poorly fitted or top-dose-only effect; inactive means flat fitted curve, though single readings scatter.
Labels: active, inactive

Compound	Class Name
CCCCN(CCCC)CCCOC(=O)c1ccc(N)cc1	inactive
COc1ccc(S(=O)(=O)Nc2nnc(CC(C)C)s2)cc1	inactive
CC1(C)[C@@H]2CC[C@@]1(C)C(=O)C2	inactive
O=C(Oc1ccccc1C(=O)O)c1ccccc1O	inactive
Nc1ccc(S(=O)(=O)NC(=O)c2ccccc2)cc1	inactive
COCCOC(=O)C1=C(C)NC(C)=C(C(=O)OC/C=C/c2ccccc2)C1c1cccc([N+](=O)[O-])c1 (configuration not stated)	inactive
Cc1cccc(C)c1NC(=O)CN(CC(=O)O)CC(=O)O	inactive
Nc1ccc(S(=O)(=O)Nc2nccs2)cc1	inactive
CCCCc1ncc(/C=C(\Cc2cccs2)C(=O)O)n1Cc1ccc(C(=O)O)cc1	inactive
CNC(=O)Oc1ccc2c(c1)[C@]1(C)CCN(C)[C@@H]1N2C	active
COc1cc(C)c(Cc2cnc(N)nc2N)cc1OC	inactive
CC1(C)OC(=O)NC1=O	inactive
NC1CCN(c2cccc(Cl)n2)CC1	inactive
O=C(O)[C@@H]1CSCN1	inactive
CC(=O)CCC(=O)O	inactive
CN(C)CCN(Cc1ccccc1)c1ccccn1	inactive
C[C@](N)(Cc1ccc(O)cc1)C(=O)O	inactive
CCn1cc(C(=O)O)c(=O)c2cnc(N3CCNCC3)nc21	inactive
CC1(C)CO[C@@H](CC(=O)O)CN1	inactive
Cc1ccc2nc(N)[nH]c(=O)c2c1Sc1ccncc1	active
Cc1cc(N)c2ccccc2[n+]1CCCCCCCCCC[n+]1c(C)cc(N)c2ccccc21	active
O=C1OC(OC(=O)c2cccnc2Nc2cccc(C(F)(F)F)c2)c2ccccc21 (configuration not stated)	inactive
O=C(O)CC(O)C(=O)O (configuration not stated)	inactive
Oc1cn2c(n1)Nc1ccc(Cl)c(Cl)c1C2	inactive
Nc1ncnc2c1ncn2[C@@H]1O[C@H](CO)[C@@H](O)[C@H]1O	inactive
Cn1c(=O)c2c(ncn2CC2OCCO2)n(C)c1=O	inactive
OCC(O)CN1CCN(c2ccccc2)CC1 (configuration not stated)	inactive
COc1cc2[nH]c(=O)[nH]c(=O)c2cc1OC	inactive
CN1CCC[C@@H]1Cc1c[nH]c2ccc(CCS(=O)(=O)c3ccccc3)cc12	inactive
CCOc1nc2cccc(C(=O)O)c2n1Cc1ccc(-c2ccccc2-c2nn[nH]n2)cc1	inactive
NCC(=O)CCC(=O)O	inactive
NCCNCCNCCN	inactive
CCCCC(CC)COC(=O)c1ccccc1O (configuration not stated)	inactive
CCCOC(=O)c1ccccc1	inactive
Cc1cc(O)cc2c1O[C@](C)(CCC[C@H](C)CCC[C@H](C)CCCC(C)C)CC2	inactive
O=C1NS(=O)(=O)c2ccccc21	inactive
CC(=O)Oc1ccc(C2(c3ccc(OC(C)=O)cc3)C(=O)Nc3ccccc32)cc1	inactive
CC[C@@]1(c2ccccc2)NC(=O)N(C)C1=O	inactive
C[C@H](N)[C@H](O)c1cccc(O)c1	inactive
C#CCN(C)Cc1ccccc1	inactive
CN1CCN(C2Cc3ccccc3Sc3ccc(Cl)cc32)CC1 (configuration not stated)	inactive
CCCCCCCCCCCCCCCCCCOCC(O)CO (configuration not stated)	inactive
NC(=O)NC(=O)Cc1ccccc1	inactive
Cc1cc2c(cc1S(N)(=O)=O)S(=O)(=O)CCC2	inactive
O=Cc1ccccc1C=O	inactive
[O-][n+]1cccc(CO)c1	inactive
O=S(=O)(O)c1cc(I)c(O)c2ncccc12	inactive
O=C(CCCN1CCN(c2ccccn2)CC1)c1ccc(F)cc1	inactive
C=Cc1c(C)c2cc3[nH]c(cc4nc(cc5nc(cc1[nH]2)C(C)=C5CCC(=O)O)C(CCC(=O)O)=C4C)c(C)c3C=C	inactive
CC(C)(C)C(=O)C(Oc1ccc(Cl)cc1)n1ccnc1 (configuration not stated)	inactive
Cc1c(Cl)cccc1Nc1ccccc1C(=O)O	inactive
CCCc1c(OCCCCc2nn[nH]n2)ccc(C(C)=O)c1O	inactive
